system.under.test: HLA-DRB1*07:01 (Homo sapiens, UniProt P01903+P01911, A100R/A102G/A103Q/D57E/D86V/E43K/F76Y/K127E/L162R/M171V/P40G/Q125H/Q99D/R33Q/R42Y/R54Q/S133A/S66F/T210M/V115G/Y107V/Y59L/Y89S)
assay.procedure: biochemical
Assay type: binding
condition.label: […]; mean of at least two independent experiments; read-out: IC50 DRB1*0701 (converted)
*1 amine or outer side, *2 acyl side, *3 side chain or, on linkers, in order; H or OH if unused. Where a SMILES comes first, the peptide text is derived from it. [ ]: non-standard residue; d: D form. X1 = NCCCC[C@@H](C(=O)[*:2])N(C[C@@H]1CCCN1)[*:1]; Aib = CC(C)(N)C(=O)O
Let's look at some compounds and their measured IC50.
Give the number; nM is assumed, so skip it.

compound	assay.result
CC(C)C[C@H](NC(=O)[C@H](CCCCN)NC(=O)[C@H](CC(C)C)NC(=O)[C@@H](NC(=O)[C@H](CC(N)=O)NC(=O)[C@H](CCC(N)=O)NC(=O)[C@H](CCCCN)NC(=O)[C@@H](NC(=O)[C@H](Cc1ccc(O)cc1)NC(=O)[C@H](CCCCN)NC(=O)C(C)(C)N)C(C)C)[C@@H](C)O)C(=O)N[C@@H](C)C(=O)N[C@H](C(=O)O)[C@@H](C)O [Aib1] (H-[Aib]KYVKQNTLKLAT-OH)	11
CC(C)C[C@H](NC(=O)[C@H](CCCCN)NC(=O)[C@H](CC(C)C)NC(=O)[C@@H](NC(=O)[C@H](CC(N)=O)NC(=O)[C@H](CCC(N)=O)NC(=O)[C@H](CCCCN)NC(=O)[C@@H](NC(=O)[C@H](Cc1ccc(O)cc1)NC(=O)[C@H](CCCCN)NC[C@@H]1CCCN1)C(C)C)[C@@H](C)O)C(=O)N[C@@H](C)C(=O)N[C@H](C(=O)O)[C@@H](C)O [Rd1] (H-[X1]YVKQNTLKLAT-OH; N-terminus and C-terminus assumed)	140
CC(C)C[C@H](NC(=O)[C@H](CCCCN)NC(=O)[C@H](CC(C)C)NC(=O)C(C)(C)NC(=O)[C@H](CC(N)=O)NC(=O)[C@H](CCC(N)=O)NC(=O)[C@H](CCCCN)NC(=O)[C@@H](NC(=O)[C@H](Cc1ccc(O)cc1)NC(=O)[C@H](CCCCN)NC(=O)[C@@H]1CCCN1)C(C)C)C(=O)N[C@@H](C)C(=O)N[C@H](C(=O)O)[C@@H](C)O	90
CC(C)C[C@H](NC(=O)[C@H](CCCCN)NC(=O)[C@H](CC(C)C)NC(=O)[C@@H](NC(=O)C(C)(C)NC(=O)[C@H](CCC(N)=O)NC(=O)[C@H](CCCCN)NC(=O)[C@@H](NC(=O)[C@H](Cc1ccc(O)cc1)NC(=O)[C@H](CCCCN)NC(=O)[C@@H]1CCCN1)C(C)C)[C@@H](C)O)C(=O)N[C@@H](C)C(=O)N[C@H](C(=O)O)[C@@H](C)O [Aib7] (H-PKYVKQ[Aib]TLKLAT-OH)	4200
CC(C)C[C@H](NC(=O)[C@H](CCCCN)NC(=O)[C@H](CC(C)C)NC(=O)[C@@H](NC(=O)[C@H](CC(N)=O)NC(=O)[C@H](CCC(N)=O)NC(=O)C(C)(C)NC(=O)[C@@H](NC(=O)[C@H](Cc1ccc(O)cc1)NC(=O)[C@H](CCCCN)NC(=O)[C@@H]1CCCN1)C(C)C)[C@@H](C)O)C(=O)N[C@@H](C)C(=O)N[C@H](C(=O)O)[C@@H](C)O	780

Give recorded IC50. `CC(C)C[C@H](NC(=O)[C@H](CCCCN)NC(=O)[C@H](CC(C)C)NC(=O)[C@@H](NC(=O)[C@H](CC(N)=O)NC(=O)CN(CCC(N)=O)C(=O)[C@H](CCCCN)NC(=O)[C@@H](NC(=O)[C@H](Cc1ccc(O)cc1)NC(=O)[C@H](CCCCN)NC(=O)[C@@H]1CCCN1)C(C)C)[C@@H](C)O)C(=O)N[C@@H](C)C(=O)N[C@H](C(=O)O)[C@@H](C)O`
290

Give recorded IC50. `CC(C)C[C@H](NC(=O)[C@H](CCCCN)NC(=O)[C@H](CC(C)C)NC(=O)[C@@H](NC(=O)[C@H](CC(N)=O)NC(=O)[C@H](CCC(N)=O)NC(=O)[C@H](CCCCN)NC(=O)CN(C(=O)[C@H](Cc1ccc(O)cc1)NC(=O)[C@H](CCCCN)NC(=O)[C@@H]1CCCN1)C(C)C)[C@@H](C)O)C(=O)N[C@@H](C)C(=O)N[C@H](C(=O)O)[C@@H](C)O`
710

Give recorded IC50. `CC(C)C[C@H](NC(=O)[C@H](CCCCN)NC(=O)[C@H](CC(C)C)NC(=O)[C@@H](NC(=O)[C@H](CC(N)=O)NC(=O)[C@H](CCC(N)=O)NC(=O)[C@H](CCCCN)NC(=O)[C@@H](NC(=O)[C@H](Cc1ccc(O)cc1)NC(=O)[C@H](CCCCN)NC(=O)[C@@H]1CCCN1)C(C)C)[C@@H](C)O)C(=O)N[C@@H](C)C(=O)NC(C)(C)C(=O)O`
6

---

system.under.test: HLA-DRB5*01:01 (Homo sapiens, UniProt P01903+Q30154)
Construct: Human leukocyte antigen-DR molecules were immunopurified from homozygous EBV B lymphoblastoid cells; endogenous in cells
assay.procedure: biochemical
Type: binding
condition.label: […]; mean of at least two independent experiments; read-out: IC50 DRB5*0101
pIC50: −log10 of the molar value. Where a SMILES comes first, the peptide text is derived from it. [ ]: non-standard residue; d: D form. Aib = CC(C)(N)C(=O)O
Values of pIC50 greater than or equal to 7 map to YES; values below map to NO.

compound	system.under.test	classification
CC(C)C[C@H](NC(=O)[C@H](CCCCN)NC(=O)[C@H](CC(C)C)NC(=O)[C@@H](NC(=O)[C@H](CC(N)=O)NC(=O)[C@H](CCC(N)=O)NC(=O)C(C)(C)NC(=O)[C@@H](NC(=O)[C@H](Cc1ccc(O)cc1)NC(=O)[C@H](CCCCN)NC(=O)[C@@H]1CCCN1)C(C)C)[C@@H](C)O)C(=O)N[C@@H](C)C(=O)N[C@H](C(=O)O)[C@@H](C)O [Aib5]	HLA-DRB5*01:01 (Homo sapiens, UniProt P01903+Q30154)	NO
CC(C)C[C@H](NC(=O)[C@H](CCCCN)NC(=O)[C@H](CC(C)C)NC(=O)[C@@H](NC(=O)[C@H](CC(N)=O)NC(=O)[C@H](CCC(N)=O)NC(=O)[C@H](CCCCN)NC(=O)[C@@H](NC(=O)C(C)(C)NC(=O)[C@H](CCCCN)NC(=O)[C@@H]1CCCN1)C(C)C)[C@@H](C)O)C(=O)N[C@@H](C)C(=O)N[C@H](C(=O)O)[C@@H](C)O [Aib3]	HLA-DRB5*01:01 (Homo sapiens, UniProt P01903+Q30154)	NO
CC(C)C[C@H](NC(=O)[C@H](CCCCN)NC(=O)[C@H](CC(C)C)NC(=O)[C@@H](NC(=O)[C@H](CC(N)=O)NC(=O)[C@H](CCC(N)=O)NC(=O)[C@H](CCCCN)NC(=O)[C@@H](NC(=O)[C@H](Cc1ccc(O)cc1)NC(=O)[C@H](CCCCN)NC(=O)C(C)(C)N)C(C)C)[C@@H](C)O)C(=O)N[C@@H](C)C(=O)N[C@H](C(=O)O)[C@@H](C)O [Aib1] (H-[Aib]KYVKQNTLKLAT-OH)	HLA-DRB5*01:01 (Homo sapiens, UniProt P01903+Q30154)	YES
CC(C)C[C@H](NC(=O)[C@H](CCCCN)NC(=O)[C@H](CC(C)C)NC(=O)[C@@H](NC(=O)[C@H](CC(N)=O)NC(=O)[C@H](CCC(N)=O)NC(=O)[C@H](CCCCN)NC(=O)[C@@H](NC(=O)[C@H](Cc1ccc(O)cc1)NC(=O)C(C)(C)NC(=O)[C@@H]1CCCN1)C(C)C)[C@@H](C)O)C(=O)N[C@@H](C)C(=O)N[C@H](C(=O)O)[C@@H](C)O [Aib2] (H-P[Aib]YVKQNTLKLAT-OH)	HLA-DRB5*01:01 (Homo sapiens, UniProt P01903+Q30154)	NO

Check if pIC50 >= 7 (inclusive). Item: CC(C)C[C@H](NC(=O)[C@H](CCCCN)NC(=O)[C@H](CC(C)C)NC(=O)[C@@H](NC(=O)[C@H](CC(N)=O)NC(=O)C(C)(C)NC(=O)[C@H](CCCCN)NC(=O)[C@@H](NC(=O)[C@H](Cc1ccc(O)cc1)NC(=O)[C@H](CCCCN)NC(=O)[C@@H]1CCCN1)C(C)C)[C@@H](C)O)C(=O)N[C@@H](C)C(=O)N[C@H](C(=O)O)[C@@H](C)O [Aib6]
YES
